Measured values drawn from patent US20240376052A1 for this set.

test: Liver microsomes stability, mouse; settings: Mouse, Without NADPH, 0 min
Assay Metric: Remaining Percentage (%)
The answer is to be given in %; state only the numeric part.

# lookup: Remaining Percentage (%) of CCCCC/C=C\C/C=C\CCCCCCCC(=O)n1cc(CCN(C)C)c2ccccc21 100.00

Recorded Remaining Percentage (%) of CCCCC/C=C\C/C=C\CCCCCCCC(=O)n1cc(C[C@H]2CCCN2C)c2ccccc21 , please. 100.00

What does the data say about its Remaining Percentage (%)? Entry: [2H]C([2H])(c1cn(C(=O)CCCCCCC/C=C\C/C=C\CCCCC)c2ccccc12)[C@H]1CCCN1C([2H])([2H])[2H] 100.00

Any idea what Remaining Percentage (%) was measured for CCCCC/C=C\C/C=C\CCCCCCCC(=O)n1cc(C[C@H]2CCCN2C)c2cc(OC)ccc21 ? 100.00
